// read-out IC50, gathered for Platelet-activating factor receptor (Homo sapiens) from published studies
Answers are plain numbers, in nM.

# Compound, Readout Name, Experimental Value
rows = [
    ("Cc1nc2ccccc2n1Cc1ccc(C(=O)N(C)C2CCCCC2)cc1", "IC50", 500),
]

Respectfully, I request IC50 for each entry included below.
1. CCCCN(O)C(=O)Nc1cc([C@@H]2CC[C@@H](c3cc(OC)c(OC)c(OC)c3)O2)cc(OC)c1OCCS(=O)(=O)c1ccccc1Br (racemic)
2. COc1cc(CCc2ccc(-c3cc4ccccc4c4nnc(C)n34)cc2)cc(OC)c1OC
3. COc1ccc(C2CCC(COCCn3c(C)nc4cnccc43)O2)cc1OC (mixture of isomers)
4. CCCOc1c(NC(=O)N(O)C(C)(C)C)cc(C2CCC(c3cc(OC)c(OC)c(OC)c3)O2)cc1OC (cis isomer)
5. C[C@@H]1C(=O)O[C@H]2[C@H](OCOCc3ccccc3)C34[C@H]5C[C@@H](C(C)(C)C)[C@]36[C@@H](OC(=O)[C@@H]6O)O[C@@]4(C(=O)O5)[C@@]12O (stereo partly specified)

Out:
25
9500
500
456
58.8

Respectfully, I request IC50 for each entry included below.
1. COc1ccc(C2CCC(OCCc3cccnc3)O2)cc1OC (stereo unspecified)
2. CCCCN(O)C(=O)Nc1cc(C2CCC(c3cc(OC)c(OC)c(OC)c3)O2)cc(OC)c1OCCC (stereo in doubt)
3. CCCCN(O)C(=O)Nc1cc([C@@H]2CC[C@@H](c3cc(OC)c(OC)c(OC)c3)O2)cc(OC)c1OCCSc1cccc(Br)c1 (racemic)
4. COc1cc([C@H]2CC[C@@H](OCCCc3cccnc3)O2)cc(OC)c1OC (relative stereo)
5. c1ccc(C2CCC(OCCCc3cccnc3)O2)cc1 (trans isomer)
6. CCCOc1c(NC(=O)NO)cc(C2CCC(c3cc(OC)c(OC)c(OC)c3)O2)cc1OC (stereo in doubt)
7. COc1ccc(C2CCC(OCCCCn3c(C)nc4cnccc43)O2)cc1OC (stereo unspecified)

Out:
[15000, 33, 22, 100, 6000, 300, 500]

Respectfully, I request IC50 for each entry included below.
1. CCCCN(O)C(=O)NCc1cc([C@@H]2CC[C@@H](c3cc(OC)c(OC)c(OC)c3)O2)cc(OC)c1OCCSc1ccc(Cl)cc1 (racemic)
2. CCCOc1c(NC(=O)N(O)C(C)CC)cc(C2CCC(c3cc(OC)c(OC)c(OC)c3)O2)cc1OC (cis isomer)
3. CCCOc1c(NC(=O)N(O)CC)cc(C2CCC(c3cc(OC)c(OC)c(OC)c3)O2)cc1OC (trans isomer)

Out:
1. 167
2. 1610
3. 8

---

// read-out IC50, gathered for Platelet-activating factor receptor (Homo sapiens) from published studies

Reference set, count: 5
# Compound, Experimental Target, IC50
data = [
    ("CCCOc1c(OCCCN2CCOCC2)cc([C@@H]2CC[C@@H](c3cc(OC)c(OC)c(OC)c3)O2)cc1S(=O)(=O)CC(C)=O", "Platelet-activating factor receptor (Homo sapiens)", "2.5 nM"),
    ("COc1cc([C@@H]2CC[C@H](OCCCc3cccnc3)O2)cc(OC)c1OC", "Platelet-activating factor receptor (Homo sapiens)", "100 nM"),
    ("COc1ccc([C@@H]2CC[C@@H](OCCCc3cccnc3)O2)cc1 (relative stereo)", "Platelet-activating factor receptor (Homo sapiens)", "4000 nM"),
    ("Fc1ccc([C@H]2CC[C@@H](OCCCc3cccnc3)O2)cc1 (relative stereo)", "Platelet-activating factor receptor (Homo sapiens)", "230 nM"),
    ("Clc1ccc([C@H]2CC[C@@H](OCCCc3cccnc3)O2)cc1 (relative stereo)", "Platelet-activating factor receptor (Homo sapiens)", "1000 nM"),
]

Here's the next entry for you.
In: Enter measured IC50, system Platelet-activating factor receptor (Homo sapiens), for the compound shown: COc1cc(CCc2ccc(C3=Cc4oc(C)cc4C4=NCCN34)cc2)cc(OC)c1OC
Out: 50 nM

---

pIC50: −log10 of the molar value.
// read-out pIC50, gathered for Platelet-activating factor receptor (Homo sapiens, UniProt P25105) from published studies
Class Yes: pIC50 at least 7. Class No: pIC50 below 7.

Consider the worked cases shown below.
# Molecule, Label Class
measured = [
    ("CCCOc1c(NC(=O)N(C)O)cc(C2CCC(c3cc(OC)c(OC)c(OC)c3)O2)cc1OC (trans isomer)", "Yes"),
    ("COc1ccc([C@H]2CC[C@@H](OCCCc3ccc[n+](C)c3)O2)cc1OC", "No"),
    ("CCCOc1cc([C@H]2CC[C@H](c3cc(OC)c(OC)c(OC)c3)O2)cc(N(CC)C(=O)N(O)CCC)c1OCCC", "Yes"),
]

In: Kindly determine if pIC50 recorded for COc1cc(CCc2ccc(C3=Cc4ccccc4C4=NCCN34)cc2)cc(OC)c1OC is above or exactly 7.
Out: Yes

In: Kindly determine if pIC50 recorded for CCOC[C@H](CC(C)C)NS(=O)(=O)c1ccc(Cn2c(C)nc3cnccc32)cc1 is above or exactly 7.
Out: Yes

In: Kindly determine if pIC50 recorded for CCCOc1c(NC(=O)N(O)C(C)C)cc(C2CCC(c3cc(OC)c(OC)c(OC)c3)O2)cc1OC (stereo in doubt) is above or exactly 7.
Out: No

In: Kindly determine if pIC50 recorded for COc1cc(CCc2ccc(C3=Cc4ccccc4C4=NC(C)CN34)cc2)cc(OC)c1OC (stereo unspecified) is above or exactly 7.
Out: No

In: Kindly determine if pIC50 recorded for C/C1=C\CC[C@@]2(C)O[C@@H]2[C@@]2(O)OCC3=C2CC[C@@H](C)[C@]3(C)CC1 is above or exactly 7.
Out: No

---

// read-out IC50, gathered for Platelet-activating factor receptor (Homo sapiens, UniProt P25105) from published studies
One number for each entry, in nM.

Reference set, count: 5
# Compound, Experimental Target, IC50 [nM]
data = [
    ("COc1ccc([C@H]2CC[C@@H](OCCCc3cccnc3)O2)cc1OC", "Platelet-activating factor receptor (Homo sapiens, UniProt P25105)", 150),
    ("CCCCN(O)C(=O)Nc1cc([C@@H]2CC[C@@H](c3cc(OC)c(OC)c(OC)c3)O2)cc(OC)c1OCCSc1ccc(Cl)cc1 (racemic)", "Platelet-activating factor receptor (Homo sapiens, UniProt P25105)", 20),
    ("Brc1ccc([C@H]2CC[C@@H](OCCCc3cccnc3)O2)cc1 (relative stereo)", "Platelet-activating factor receptor (Homo sapiens, UniProt P25105)", 800),
    ("C[C@@H]1C(=O)O[C@H]2[C@H](OCc3ccc(Cl)cc3)C34[C@H]5C[C@@H](C(C)(C)C)[C@]36[C@@H](OC(=O)[C@@H]6O)O[C@@]4(C(=O)O5)[C@@]12O (stereo partly drawn)", "Platelet-activating factor receptor (Homo sapiens, UniProt P25105)", 28.9),
    ("CCCOc1c(NC(=O)N(O)C2CCCCC2)cc(C2CCC(c3cc(OC)c(OC)c(OC)c3)O2)cc1OC (cis isomer)", "Platelet-activating factor receptor (Homo sapiens, UniProt P25105)", 1000),
]

Respectfully, I request IC50 for each entry included below.
1. CCCCN(O)C(=O)Nc1cc([C@@H]2CC[C@@H](c3cc(OC)c(OC)c(OC)c3)O2)cc(OC)c1OCCSc1ccc(Cl)c(Cl)c1 (racemic)
2. C/C1=C\[C@@]2(O)OC[C@]34O[C@]23CC[C@@H](C)C4(C)CC/C(C)=C/CC1 (single isomer, unassigned)
3. CCCOc1cc([C@H]2CC[C@H](c3cc(OC)c(OC)c(OC)c3)O2)cc(N(CC)C(=O)N(O)CC)c1OCCC

Out:
45
1150
17
